# System: MDA-MB-231
# Assay Procedure: NCI tumour cell line growth inhibition, 48 h
The source made the active and inactive calls. No stated cut-off is given here; in the data, active = GI50 up to about 1.1 µM and inactive = higher.
Readings of GI50 for the listed compounds

C/C(=C\COc1ccc2ccc(=O)oc2c1)CCC(=O)C(C)(C)O; 44 µM (inactive)
OC12COc3ccccc3C1Oc1ccccc1C2 (centres undefined); > 100 µM (inactive)
CC1OC2OC3C(OCC(O)C3O)OC(=O)[C@]34CCC(C)(C)CC3C3=CCC5[C@@]6(C)C[C@H](O)[C@H](OC7OC(CO)C(O)C(O)C7OC7OCC(OC(=O)CC(C)(O)CC(=O)OC1C(O)C2O)C(O)C7O)[C@@](C)(CO)C6CC[C@@]5(C)[C@]3(C)CC4 (some centres undefined); 9.23 µM (inactive)
O=C1CCCc2cc3c(cc21)CC1(Cc2ccccc2C1)C3; 8.18 µM (inactive)
O=C1OC(=O)C2CCCC3CCCC1C32 (centres undefined); > 100 µM (inactive)

Query: Supply GI50 value. Item: CCOc1ccc(C(=O)/C=C2/Nc3ccccc3N/C2=C/C(=O)c2ccc(OCC)cc2)cc1
Reply: > 100 µM (inactive)

Query: Supply GI50 value. Item: CCOC(=O)OC1C(Br)C2CCC1(C)C2(C)C (centres undefined)
Reply: 11.9 µM (inactive)

Query: Supply GI50 value. Item: COC(=O)C1C(=O)N(C)C(=O)N2CCCC12 (centres undefined)
Reply: > 100 µM (inactive)

Query: Supply GI50 value. Item: N#Cc1ccccc1NC(=O)C(=O)c1c(O)c2ccccc2oc1=O
Reply: > 100 µM (inactive)

* * *

# Test system: U-251
# Assay Procedure: NCI tumour cell line growth inhibition, 48 h
Activity calls are given as the source filed them. No stated cut-off is given here; in the data, active = GI50 up to about 1.1 µM and inactive = higher.
Readings of GI50 for the listed molecules

OC1(c2ccccc2)CSC2=Nc3ccccc3C3CCN1N23 (configuration not stated); 14.9 µM (inactive)
CC1=C(C(=O)Nc2cc(F)c(F)cc2F)C(c2ccc([N+](=O)[O-])cc2)C(C(=O)Nc2cc(F)c(F)cc2F)=C(C)N1; 30.7 µM (inactive)
Cc1ccc(C2=Nn3c(nc4sc(-c5ccccc5)cc4c3=O)SC2)cc1; > 100 µM (inactive)
COC(=O)c1nc(N)nc(C(=O)OC)c1C(=O)c1ccccc1; > 100 µM (inactive)
CN(C)CCNc1c2ccccc2c2c3c(cccc13)C(=O)N(CCN(C)C)C2=O; 0.121 µM (active)

Below: the item to evaluate.
Query: Fill in: GI50 on U-251, entry CSC1=NS(=O)(=O)c2cc(C(=O)NN(C)C(=O)c3cc4c(cc3Cl)SC(SC)=NS4(=O)=O)c(Cl)cc2S1
Reply: > 10 µM (inactive)

* * *

# System: NCI-H522
# Assay Procedure: NCI tumour cell line growth inhibition, 48 h
Calls of active or inactive are those of the source. No stated cut-off is given here; in the data, active = GI50 up to about 1.1 µM and inactive = higher.
Your answer must be one of the following: class 1 = active, class 0 = inactive

O=S(=O)(O)c1cc(/N=[N+](\[O-])c2cc(S(=O)(=O)O)c3ccccc3c2)cc2ccccc12; class 0
COc1c(O)cc2c(c1O)C(=O)/C(=C/c1ccc(O)cc1)CO2; class 0
CC(=O)OCC1OC(n2c(=O)n(-c3ccccc3)c(=O)c3cc(Br)cc(Br)c32)C(OC(C)=O)C(OC(C)=O)C1OC(C)=O (centres undefined); class 0
COc1cccc(-c2nc(-c3cnccn3)n(COCCO)n2)c1; class 0
Cc1nc(=O)c2cc(CN(C)c3ccc(C(=O)N[C@@H](CCC(=O)O)C(=O)O)s3)ccc2[nH]1 [RALTITREXED]; class 0
O=C(Nc1ccc(S(=O)(=O)/N=c2\ncccn2C(=O)C(C(F)(F)F)C(F)(F)F)cc1)C(C(F)(F)F)C(F)(F)F; class 0
CC1=CC(C)(C)N=C2SC(c3ccc(N)cc3)=NN12; class 0
CCOC(=O)C1=CC(C)(C(=O)OCC)Nc2c(nc(OC)[nH]c2=O)N1 (centres undefined); class 0

Query: Dear colleague, could you share the recorded outcome for O=C(/C=C/c1ccc(O)c(O)c1)OC1C[C@@](O)(C(=O)O)C[C@@H](O)[C@H]1OC(=O)/C=C/c1ccc(O)c(O)c1 (some centres undefined) when you have a moment?
Reply: class 0

Query: Dear colleague, could you share the recorded outcome for C/C(=C/CO[Si](C)(C)C(C)(C)C)C(=O)N(C)c1ccccc1I when you have a moment?
Reply: class 0

Query: Dear colleague, could you share the recorded outcome for C[Si](C)(C)/C(Br)=C\CCN1C(=O)CCC1O (centres undefined) when you have a moment?
Reply: class 0

Query: Dear colleague, could you share the recorded outcome for CCCCN(CCCC)CCC(O)c1cc2c(Cl)cc(Cl)cc2c2cc(C(F)(F)F)ccc12 (centres undefined) when you have a moment?
Reply: class 0

Query: Dear colleague, could you share the recorded outcome for CN(C)CCn1c(=O)c2ccc3c4c(nn3CCN(C)C)c3cc(N)ccc3n(c1=O)c24 when you have a moment?
Reply: class 1

Query: Dear colleague, could you share the recorded outcome for CC(C)C[P+](c1ccccc1)(c1ccccc1)c1ccccc1 when you have a moment?
Reply: class 0
